Numbers sourced from patent US9708336B2.

target: VIM-1 (Pseudomonas aeruginosa (strain ATCC 15692 / DSM 22644 / CIP 104116 / JCM 14847 / LMG 12228 / 1C / PRS 101 / PAO1)); assay: Enzyme activity: determination of IC50, fluorescence assay with CCF2-FA substrate (VIM-1); format: biochemical; conditions: VIM-1 enzyme, CCF2-FA substrate; read-out: VIM-1 IC50
TEST_READOUT: log10 IC50 (log10 of the value in nM)

# COMPOUND, log10 IC50
rows = [
    ("CN(C)CCNc1nc2c(-c3cccc(S(N)(=O)=O)c3-c3nn[nH]n3)cccc2s1", 0.99),
    ("NS(=O)(=O)c1c(C(F)(F)F)ccc(-c2ccc3c(c2)CCNC3)c1-c1nnn[nH]1", -0.09),
    ("NS(=O)(=O)c1c(C(F)(F)F)ccc([C@H]2CC[C@H](O)CC2)c1-c1nnn[nH]1", -0.40),
    ("Nc1nc2c(-c3ccc(C(F)CO)c(S(N)(=O)=O)c3-c3nn[nH]n3)cccc2s1 (centres unmarked)", 0.60),
    ("NC[C@H]1CC[C@@H](c2ccc(CCC3CCNCC3)c(S(N)(=O)=O)c2-c2nnn[nH]2)CC1", 1.54),
    ("Nc1nc2ccc(-c3ccc(CC4CCNCC4)c(S(N)(=O)=O)c3-c3nn[nH]n3)cc2[nH]1", 0.81),
    ("COCc1cc(CCc2ccc(C(F)(F)F)c(S(N)(=O)=O)c2-c2nn[nH]n2)cnc1N", 0.59),
    ("NS(=O)(=O)c1c(C(F)(F)F)ccc(-c2ccc(CN3CCNCC3)cc2)c1-c1nnn[nH]1", 0.24),
]

* * *

target: VIM-1 (Pseudomonas aeruginosa (strain ATCC 15692 / DSM 22644 / CIP 104116 / JCM 14847 / LMG 12228 / 1C / PRS 101 / PAO1)); test: Enzyme activity: determination of IC50, fluorescence assay with CCF2-FA substrate (VIM-1); assay type: biochemical; settings: VIM-1 enzyme, CCF2-FA substrate; read-out: VIM-1 IC50
Listed compounds paired with reported IC50

# COMPOUND, IC50 (nM)
measured = [
    ("Cc1n[nH]c2c1CN(c1ccc(C(F)(F)F)c(S(N)(=O)=O)c1-c1nnn[nH]1)CC2 [Example 655]", 0.225),
    ("NC[C@H]1CC[C@@H](Cc2ccc(-c3ccc(C4CCNC4)cc3)c(-c3nnn[nH]3)c2S(N)(=O)=O)CC1 (stereo partly drawn) [Example 587]", 11.5),
    ("NS(=O)(=O)c1c(C(F)(F)F)ccc([C@H]2CC[C@H](NC3CC4(CCNCC4)C3)CC2)c1-c1nnn[nH]1 [Example 685]", 4.88),
    ("NS(=O)(=O)c1c(C(F)(F)F)ccc(N2CC[C@H](CO)[C@H](F)C2)c1-c1nnn[nH]1 [Example 663]", 0.79),
    ("NCCCCNc1nc2c(-c3cccc(S(N)(=O)=O)c3-c3nnn[nH]3)cccc2s1 [Example 642]", 9),
    ("NCC(CN)c1ccc(-c2cccc(S(N)(=O)=O)c2-c2nnn[nH]2)cc1 [Example 509]", 396),
    ("Nc1nc2cc(C(F)(F)F)cc(-c3ccc(C(F)(F)F)c(S(N)(=O)=O)c3-c3nnn[nH]3)c2[nH]1 [Example 567]", 0.225),
    ("CC1(O)CCCN(c2ccc(C(F)(F)F)c(S(N)(=O)=O)c2-c2nnn[nH]2)C1 (stereo not drawn) [Example 654]", 1.23),
    ("Nc1nc2nccc(-c3ccc(C(F)(F)F)c(S(N)(=O)=O)c3-c3nnn[nH]3)c2[nH]1 [Example 570]", 0.49),
    ("NCC1CCC(N[C@H]2CC[C@H](c3ccc(C(F)(F)F)c(S(N)(=O)=O)c3-c3nnn[nH]3)CC2)CC1 (stereo partly drawn) [Example 704]", 7.17),
    ("C[N+](C)(C)CCN1CCC(c2ccc(-c3ccc(C(F)(F)F)c(S(N)(=O)=O)c3-c3nnn[nH]3)cc2)CC1 [Example 677]", 19.4),
    ("N[C@]1(c2ccc(-c3ccc(C(F)(F)F)c(S(N)(=O)=O)c3-c3nn[nH]n3)cc2)CCNC1 [Example 547]", 1.18),
    ("Nc1ccc2cccc(-c3ccc(C(F)(F)F)c(S(N)(=O)=O)c3-c3nn[nH]n3)c2n1 [Example 554]", 0.363),
    ("Nc1ncc(CCc2ccc(C(F)(F)F)c(S(N)(=O)=O)c2-c2nn[nH]n2)cc1CO [Example 508]", 1.66),
    ("N=C(N)NC1CCC(CCc2ccc(C(F)(F)F)c(S(N)(=O)=O)c2-c2nn[nH]n2)CC1 (stereo not drawn) [Example 524]", 1.05),
]
